B1: CPEB3 Ribozyme (parent)
chain: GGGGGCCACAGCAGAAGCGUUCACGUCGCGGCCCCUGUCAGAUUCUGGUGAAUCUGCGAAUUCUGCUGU

variants of: B1; assay: self-cleavage, relative activity (ratio to wild type); higher = more cleavage; co-transcriptional
reported-endpoint: self-cleavage
Give the figure by itself; no unit, no explanation.

>>> print(df.to_string())
   mutant_id  reported_endpoint  reported_value
0  C45A A60C      self-cleavage           0.476
1  A23C A42C      self-cleavage            0.92
2  A15U C63G      self-cleavage           0.764

Dear colleague, I am looking for the recorded self-cleavage of the following variant: A13G A51G
0.843

Follow-up item: C34G A60U
0.39

Item: A10U U26G
0.994

Entry C29G U61G please
0.348

Next: G30C G48U
0.706

Now try U46A U49C .
0.666

Here is the next variant: U38G C54G
0.302

Next variant: G41A C66U
0.756

Then this variant: G3C G19U
0.0242

Cool, now G37A U44A
0.277

And for A16U U20G ?
0.108

Likewise for U44C U61G ?
0.49

Param item: U55A C63U
0.736

Another variant to check: G28C C39A
0.156

Okay, and G4U U49C ?
0.758

// repeat for A8C A15G and report
0.995
